# testedOn: TLR2 (Mus musculus)
# Construct: endogenous in cells
# Sequence (Q9QUN7 25-784): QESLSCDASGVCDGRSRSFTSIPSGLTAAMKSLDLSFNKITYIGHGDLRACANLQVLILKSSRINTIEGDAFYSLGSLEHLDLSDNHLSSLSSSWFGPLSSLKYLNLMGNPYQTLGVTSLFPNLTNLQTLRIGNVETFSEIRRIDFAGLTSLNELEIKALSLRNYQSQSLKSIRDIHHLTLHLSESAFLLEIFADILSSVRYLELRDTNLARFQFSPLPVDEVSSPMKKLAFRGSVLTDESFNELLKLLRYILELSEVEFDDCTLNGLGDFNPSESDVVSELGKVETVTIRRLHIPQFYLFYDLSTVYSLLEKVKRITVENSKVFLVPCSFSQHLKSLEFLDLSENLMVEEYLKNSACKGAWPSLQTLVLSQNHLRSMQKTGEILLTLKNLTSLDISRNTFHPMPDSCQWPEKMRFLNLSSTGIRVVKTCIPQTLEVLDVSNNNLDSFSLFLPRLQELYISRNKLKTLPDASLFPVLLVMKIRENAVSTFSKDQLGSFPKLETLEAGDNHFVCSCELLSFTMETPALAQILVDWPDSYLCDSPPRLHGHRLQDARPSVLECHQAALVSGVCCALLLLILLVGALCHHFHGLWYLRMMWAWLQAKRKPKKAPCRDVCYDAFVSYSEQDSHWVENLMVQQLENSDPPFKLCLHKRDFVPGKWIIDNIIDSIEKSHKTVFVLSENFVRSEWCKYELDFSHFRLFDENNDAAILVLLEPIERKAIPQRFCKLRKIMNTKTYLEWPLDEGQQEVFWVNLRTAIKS
# methodDescription: TLR2 functional assay, cytokine release from RAW 264.7 mouse macrophage cell line
# conditionParameters: average of all runs
pEC50: −log10 of the molar value.
measurementKind: pEC50

CCCCCCCCCCCCCNC(=O)N[C@@H]1CCCN(C(=O)c2ccc(C(=O)N3C[C@@H](C(=O)N[C@H]4C[C@@H]4c4ccccc4)[C@H](C(=O)N[C@H]4C[C@@H]4c4ccccc4)C3)cc2)C1 = < 6.00
CCCCCCNC(=O)[C@H](Cn1cnc(-c2ccc(C(=O)N3C[C@@H](C(=O)N[C@H]4C[C@@H]4c4ccccc4)[C@H](C(=O)N[C@H]4C[C@@H]4c4ccccc4)C3)cc2)c1)NC(=O)CCCCCC = 7.30 to 10.00
CCCCCCCC(=O)N[C@@H](Cn1cc(-c2ccc(C(=O)N3C[C@@H](C(=O)N[C@H]4C[C@@H]4c4ccccc4)[C@H](C(=O)N[C@H]4C[C@@H]4c4ccccc4)C3)cc2)nn1)C(=O)NCCCCCC = 7.30 to 10.00
CCCCCCNC(=O)[C@H](Cn1cc(-c2ccc(C(=O)N3C[C@@H](C(=O)N[C@H]4C[C@@H]4c4ccccc4)[C@H](C(=O)N[C@H]4C[C@@H]4c4ccccc4)C3)cc2)nn1)NC(=O)CCCCCC = 7.30 to 10.00

Asked: State its pEC50 on TLR2 (Mus musculus): `CCCCCCCCNC(=O)N[C@@H](Cn1cc(-c2ccc(C(=O)N3C[C@@H](C(=O)N[C@H]4C[C@@H]4c4ccccc4)[C@H](C(=O)N[C@H]4C[C@@H]4c4ccccc4)C3)cc2)nn1)C(=O)NCCCCCC`
Given back: 7.30 to 10.00
